kcat/KM Cat S values, listed per item
Biological target: human recombinant cathepsin S (Homo sapiens, UniProt P25774)
Construct: with a 100 nM final concentration of each active cathepsin for 30 min; made in house
Sequence (P25774 115-331): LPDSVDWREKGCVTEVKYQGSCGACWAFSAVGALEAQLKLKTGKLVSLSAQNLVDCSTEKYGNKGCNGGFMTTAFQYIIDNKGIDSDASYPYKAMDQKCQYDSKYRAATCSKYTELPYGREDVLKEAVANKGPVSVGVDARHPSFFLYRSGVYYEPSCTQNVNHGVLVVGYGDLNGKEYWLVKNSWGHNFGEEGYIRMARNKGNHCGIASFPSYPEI
Test: Substrate hydrolysis kinetics (kcat, KM, kcat/KM) of ACC-labeled substrates
Assay type: biochemical
Details: cathepsin S 150 nM; pH 5.5, 37 °C; Michaelis–Menten; average of at least triplicate, S.D. below 15%
Square brackets hold non-standard residues; d marks the D form. * marks the point of attachment. ACC = NC(=O)Cc1cc(=O)oc2cc(N*)ccc12; hTyr = N[C@@H](CCc1ccc(O)cc1)C(=O)O; Cha = N[C@@H](CC1CCCCC1)C(=O)O; hLeu = CC(C)CC[C@H](N)C(=O)O; hSer = N[C@@H](CCO)C(=O)O; Nle = CCCC[C@H](N)C(=O)O; Nva = CCC[C@H](N)C(=O)O; OBn = c1ccc(CO*)cc1; Bn = c1ccc(C*)cc1

substance: Ac-[Nva][Cha]E(OBn)R-{ACC} (SMILES CCC[C@H](NC(C)=O)C(=O)N[C@@H](CC1CCCCC1)C(=O)N[C@@H](CCC(=O)OCc1ccccc1)C(=O)N[C@@H](CCCNC(=N)N)C(=O)Nc1ccc2c(CC(N)=O)cc(=O)oc2c1) [ACC-labeled tetrapeptide substrate]
measure_unit: M⁻¹ s⁻¹
kcat/KM Cat S: 37
--
substance: Ac-[hLeu][Nle]E(OBn)R-{ACC} (SMILES CCCC[C@H](NC(=O)[C@H](CCC(C)C)NC(C)=O)C(=O)N[C@@H](CCC(=O)OCc1ccccc1)C(=O)N[C@@H](CCCNC(=N)N)C(=O)Nc1ccc2c(CC(N)=O)cc(=O)oc2c1) [ACC-labeled tetrapeptide substrate]
measure_unit: M⁻¹ s⁻¹
kcat/KM Cat S: 96
--
substance: Ac-[hTyr]LE(OBn)R-{ACC} (SMILES CC(=O)N[C@@H](CCc1ccc(O)cc1)C(=O)N[C@@H](CC(C)C)C(=O)N[C@@H](CCC(=O)OCc1ccccc1)C(=O)N[C@@H](CCCNC(=N)N)C(=O)Nc1ccc2c(CC(N)=O)cc(=O)oc2c1) [ACC-labeled tetrapeptide substrate]
measure_unit: M⁻¹ s⁻¹
kcat/KM Cat S: 41
--
substance: Ac-[Cha]L[hSer](Bn)R-{ACC} (SMILES CC(=O)N[C@@H](CC1CCCCC1)C(=O)N[C@@H](CC(C)C)C(=O)N[C@@H](CCOCc1ccccc1)C(=O)N[C@@H](CCCNC(=N)N)C(=O)Nc1ccc2c(CC(N)=O)cc(=O)oc2c1) [ACC-labeled tetrapeptide substrate]
measure_unit: M⁻¹ s⁻¹
kcat/KM Cat S: 44
